Molecular target: Histidine--tRNA ligase (Leishmania infantum) (UniProt A4I591)
Sequence (whole entry): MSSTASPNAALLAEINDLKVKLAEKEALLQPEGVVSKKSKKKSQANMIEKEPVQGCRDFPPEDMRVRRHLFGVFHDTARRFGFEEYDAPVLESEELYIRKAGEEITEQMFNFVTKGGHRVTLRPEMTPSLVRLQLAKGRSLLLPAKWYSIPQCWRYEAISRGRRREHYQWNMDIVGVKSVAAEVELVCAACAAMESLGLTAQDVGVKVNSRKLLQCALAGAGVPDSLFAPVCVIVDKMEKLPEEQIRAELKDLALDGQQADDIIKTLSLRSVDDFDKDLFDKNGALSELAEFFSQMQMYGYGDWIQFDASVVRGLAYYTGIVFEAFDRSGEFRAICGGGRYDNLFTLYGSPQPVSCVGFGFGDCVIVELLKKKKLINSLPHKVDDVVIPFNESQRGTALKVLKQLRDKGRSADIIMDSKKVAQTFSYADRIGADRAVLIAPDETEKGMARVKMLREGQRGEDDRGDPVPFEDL
Test: Leishmania infantum Histidine tRNA synthetase (LdHisRS)
Format: functional
Set-up: scale not given: in the data most compounds retested in dose-response had high values
Details: 30 µM
Screen size: about 69,000 compounds; about 420 (0.61%) showed an effect of 50% or more. Many of the other results were omitted from the sample, so strong results are more common in it than they were.
Kindly state Percent Effect for each of the entries shown.

Fill in the recorded Percent Effect for this compound, with Histidine--tRNA ligase (Leishmania infantum) (UniProt A4I591) as test system: "CN1[C@@H](C(=O)NCC2CC2)C[C@@H]2CN(Cc3ccco3)C[C@@H]21"
17.1%

Param item: "O=C([C@@H]1C[C@@H]2CCN(Cc3ccoc3)C[C@H]2O1)N1CCCC1"
2.73%

Param item: "Cc1ccccc1CC(C)(C)NC(=O)c1cccc(OCC(N)=O)c1"
50.6%

Param item: Cc1ccc(C)c(OC(C)C(=O)Nc2cccnc2)c1 (centres undefined)
0%

Param item: "COCc1nc2c(o1)CN(C(=O)NCc1ccccc1)C2"
16%

Param item: "O=C1NCCO[C@H]2CN(C(=O)Cc3ccco3)CC[C@@H]12"
18%

Param item: "COCC(=O)N1CC[C@H]2O[C@@H](C)C[C@H]2C1"
12%

Param item: "Cn1cc(NC(=O)NCc2ccsc2)ccc1=O"
126%

Param item: "O=C(NC1CCCC1)N1C[C@H]2CN(c3ccccn3)C[C@@]2(C(=O)O)C1"
3.92%

Param item: "CN(Cc1ccsc1)C(=O)Nc1ccc(S(C)(=O)=O)cc1"
11.9%

Param item: "Cc1cc(NC(=O)CCc2ccsc2)n(C)n1"
18.3%

Param item: "Cc1ccccc1CC(C)(C)NC(=O)COc1cccc(C(N)=O)c1"
22.1%

Param item: "COc1cc(CNc2cnn(C)c2)cc2c1OCCO2"
53.6%

Param item: "Cc1cnccc1NC(=O)CCc1ccsc1"
9.33%

Param item: "CC(C)(C)c1nc2cc(NC(=O)Cn3ccc(=O)[nH]c3=O)ccc2o1"
14%

Param item: CN1CCCC(Cc2ccnc3ccncc23)CC1 (centres undefined)
0%

Param item: "Cc1noc([C@H]2C[C@H]3OCC[C@H]3N(C3CCC3)C2)n1"
-1.06%

Param item: "Cc1ocnc1C(=O)N1CCN(C(=O)CC(C)C)[C@@H]2CS(=O)(=O)C[C@@H]21"
6.67%

Param item: "CCC[C@@H]1CN(C(=O)c2cc3ccccc3cc2O)C[C@H]1N(C)C"
77.1%

Param item: "COc1cc(CNCCc2cnn(C)c2)cc2c1OCCO2"
24.8%

Param item: "COCCN1CCCn2cnc(CNC3CCCC3)c2C1"
77.8%

Param item: "COc1ccc(CN2C[C@@H]3CC[C@H](C2)N(S(C)(=O)=O)C3)cc1"
10%

Param item: Cn1ccnc1CN1CCCC(Cc2ccnc3ccncc23)CC1 (centres undefined)
43.3%

Param item: "Cc1nc[nH]c1CN1C[C@@H]2CC[C@H](C1)N(C(=O)CCc1cnn(C)c1)C2"
16.4%

Param item: "CCc1cc(N2CCSCC2)n2nc(C)c(C)c2n1"
-0.971%

Param item: "COc1cc(CNCCn2cc(C)cn2)cc2c1OCCO2"
9.17%

Param item: "Cc1noc(C[C@@H]2COC[C@H]3CN(S(=O)(=O)C4CC4)C[C@@H]23)n1"
12.8%

Param item: "Cc1cnccc1-c1cnn(CCNC(=O)c2ccncc2)c1C1CC1"
-1.42%

Param item: "Cc1cc(=O)n(C)cc1NC(=O)Cc1cc(F)ccc1F"
107%

Param item: "O=C([C@@H]1CCO[C@@H]2CCN(CC3CC3)C[C@H]21)N1CCCCO1"
17.9%

Param item: CC(=O)N1CCCC1c1cccc(Cc2ccccc2F)n1 (centres undefined)
0%

Param item: "CC(=O)N1CCO[C@@H]2CN(S(=O)(=O)c3ccc(C)cc3)CC[C@@H]2C1"
50.9%

Param item: "Cc1ccc(CNC(C)(C)c2noc(C(C)(C)C)n2)o1"
27.1%

Param item: "Cc1ccoc1C(=O)N1CC[C@H]2[C@@H]1CCC(=O)N2c1cccnc1"
23%

---

molecular target: Histidine--tRNA ligase (Leishmania infantum) (UniProt A4I591); assay: Leishmania infantum Histidine tRNA synthetase (LdHisRS); assay type: functional; set-up: scale not given: in the data most compounds retested in dose-response had high values; details: 30 µM
The campaign covered roughly 69,000 compounds. About 420 (0.61%) showed an effect of 50% or more. The sample holds strong results, similar compounds and a random draw of the others, so the mix is not that of the screen.
Entries are sorted into classes by Percent Effect as follows: b0: < 10%; b1: ≥ 10% and < 20%; b2: ≥ 20%

Input "Cc1cccc(CN2C(=O)CO[C@@H]3CN(Cc4cnn(C)c4)C[C@H]32)c1" ; output its category
b2

Param item: "Cn1ncc(-c2cc(-c3cccc(O)c3)nc(N)c2C#N)c1C1CC1"
b2

Param item: "NC(=O)N1C[C@H](NC(=O)c2cscn2)[C@@H]2OCCC[C@@H]21"
b1

Param item: "Cc1nccc(-c2cccc(NCC(=O)N3CCNC(=O)C3)c2)n1"
b1

Param item: O=c1[nH]c2cc3c(cc2cc1CN1CCCC1c1ccccn1)OCO3 (centres undefined)
b1

Param item: "CN1CCN(C[C@@H]2OC[C@H]3CN(CCc4ccccc4)CC[C@H]32)CC1"
b2

Param item: "O=C1O[C@@H]2CN(S(=O)(=O)N3CCCC3)C[C@@H]2N1CCc1cccc(Cl)c1"
b0

Param item: "O=C(c1ccoc1)N1CC[C@@H]2O[C@H](COCc3ccccn3)CC[C@@H]21"
b0

Param item: O=c1[nH]c2cc3c(cc2cc1CN1CCCC1c1ccccn1)CCC3 (centres undefined)
b2

---

molecular target: Histidine--tRNA ligase (Leishmania infantum) (UniProt A4I591); assay: Leishmania infantum Histidine tRNA synthetase (LdHisRS); type: functional; design: scale not given: in the data most compounds retested in dose-response had high values; conditions: 30 µM
The campaign covered roughly 69,000 compounds. About 420 (0.61%) showed an effect of 50% or more. For the sample, strong results were picked, then their nearest neighbours and some compounds at random.
Entries are sorted into classes by Percent Effect as follows: lowest (below 10%), middle (10% to below 50%), highest (50% or more)

Input CCC1CN(CC(=O)NCCN2CCCCC2)c2ccccc2S1 (centres undefined) ; output its category
middle

Param item: NCC(c1ccc(Cl)cc1)N1CCc2sccc2C1 (centres undefined)
middle

Param item: CSc1ccc(C(CN)N2CCc3sccc3C2)cc1 (centres undefined)
highest

Param item: "Cn1ccc(NC(=O)CN2C[C@H]3CC[C@@H]2CN(Cc2ccccn2)C3)n1"
lowest

Param item: "O=C(N[C@@H]1CN(c2ncccn2)C[C@@H]2CCCO[C@@H]21)c1cccnc1"
lowest

Param item: "Cc1nnc2n1CCN(C(=O)c1ccc(Cn3cccc3)cc1)C2"
highest

Param item: "O=C([C@@H]1COC[C@H]2CN(C3CCOCC3)C[C@H]21)N1CCOCC1"
middle

Param item: "Cc1cc(=O)n(C)cc1NC(=O)NCc1cccc(F)c1"
highest

Param item: "O=S(=O)(CCCn1cncn1)Cc1ccccc1Cl"
middle

Param item: "Cc1cc(=O)n(C)cc1NC(=O)Cc1cccc(F)c1"
highest

Param item: "NC(=O)c1cnc2n1CCN(C(=O)c1ccc(-c3cc[nH]n3)cc1)C2"
middle

Param item: "O=S(=O)(CCCn1cncn1)Cc1cccc(F)c1"
lowest

Param item: "COc1ccc(-c2nc(CCNc3nnc(C)c(C)c3C#N)co2)cc1"
highest

---

molecular target: Histidine--tRNA ligase (Leishmania infantum) (UniProt A4I591); assay: Leishmania infantum Histidine tRNA synthetase (LdHisRS); assay type: functional; design: scale not given: in the data most compounds retested in dose-response had high values; conditions: 30 µM
Among all 69,000 compounds or so, about 420 (0.61%) showed an effect of 50% or more. For the sample, strong results were picked, then their nearest neighbours and some compounds at random.
parameter.measured: Percent Effect (%)
Give your result in % as a bare value.

Quick one: Percent Effect of "c1ccc2c(c1)CCN(c1ncnc3sc4c(c13)CCNC4)C2" ?
15.1

Param item: COCCn1cc(NC(=O)C(C)CCc2ccccc2F)ccc1=O (stereo not drawn)
102

Param item: "O=C(N[C@@H]1CN(Cc2ccoc2)C[C@@H]2CCCO[C@@H]21)C1CCC1"
11.8

Param item: "CCN(C(=O)c1nc2c(s1)CCCN2Cc1ccccc1)C(C)C"
74.4

Param item: "CN(C)c1nc2c(c(N3CCc4ccccc4C3)n1)CCNC2"
58.6

Param item: "Cn1cc(NC(=O)N2CCC(c3ccccc3)CC2)ccc1=O"
102

Param item: CC(c1ccccc1)N1Cc2nc(N(C)C)ncc2C1=O (stereo not drawn)
3.54

Param item: "COCCNC(=O)[C@H]1CN(Cc2scnc2C)C[C@H]2OCC[C@@H]12"
13.3

Param item: "CN(Cc1ccco1)C(=O)Nc1ccc(=O)n(C)c1"
102

Param item: "O=C1N(CC2CC2)CCC12CCN(c1ncccn1)CC2"
24.4

Param item: "COc1ncccc1C(=O)N1CC[C@H]2C[C@@H](c3noc(C)n3)O[C@@H]2C1"
46.1

Param item: "Cn1nc(Cn2ccnc2)c2c1CN(c1nccs1)C2"
52.6

Param item: "C[C@H](NC(=O)N1CCC(Cc2ccccc2)CC1)C(=O)O"
-5

Param item: "O=C(c1cnccn1)N1C[C@@H]2CC[C@H](C1)N(C(=O)Cc1ccsc1)C2"
12.3

Param item: "CS(=O)(=O)NC1CCN(C(=O)c2ccc(F)cc2)CC1"
28.1

Param item: "c1ccc2c(c1)CCN(c1nc(-c3ccncc3)nc3c1CCNC3)C2"
101

Param item: "c1ccc2c(c1)CN(c1ncnc3c1CCNC3)CCO2"
16.1

Param item: "Cc1nc2c(c(N3CCN(c4ncccc4C(N)=O)CC3)n1)CCNC2"
12.9

Param item: CC(Nc1nc(-c2ccncc2)nc2c1CCNC2)c1ccccc1 (stereo not drawn)
54.1

Param item: "COc1ccc(CN2C[C@H]3CN(Cc4ccncc4)C(=O)[C@H]3C2)cc1"
21.4

Param item: "COCCN1C(=O)[C@H]2CC[C@@H]1CN(C(=O)COc1ccc(F)c(Cl)c1)C2"
-13.3

Param item: "O=C(NCC1CC1)[C@H]1C[C@H]2OCC[C@H]2N(Cc2ccoc2)C1"
10.5

Param item: "COc1ncc(C)cc1NC(=O)COCC(F)(F)F"
77.8

Param item: "O=C1CC[C@H]2CN(c3ncc(F)cn3)CC[C@H]2N1CCc1ccccn1"
4.84

Param item: "CCS(=O)(=O)N1CCC2(CC1)CC[C@@]1(C(=O)N(C)C)CN(C(C)=O)C[C@@H]21"
12.8

Param item: "Cn1cc(NC(=O)N2CCC(OCc3ccccc3)CC2)ccc1=O"
103

Param item: "Cc1cc2n(n1)CCN(c1nc(N(C)C)nc3c1CCNC3)C2"
36.7

Param item: "O=C(N[C@@H]1CN(Cc2ccc3c(c2)OCO3)[C@@H]2CCCO[C@@H]21)C1CC1"
7.55

Param item: "CN(Cc1ccco1)[C@@H]1CN(C(=O)c2cnccn2)C[C@@H]2CCCO[C@@H]21"
11.3

Param item: "CCO[C@H]1CC[C@H]2[C@@H]1OCCN2C(=O)COc1ccccc1"
19.1

Param item: CC(CCc1ccccc1)NC(=O)Nc1cnn(CC(N)=O)c1 (stereo not drawn)
24.3

Param item: "Cn1ccnc1CN1CCN(Cc2ccccc2)[C@@H]2CS(=O)(=O)C[C@@H]21"
5.59

Param item: "CN(Cc1cccs1)C(=O)c1ccc(=O)n(C)c1"
11.3

Param item: "COc1cccc(OCC(=O)Nc2cc(C)cnc2OC)c1"
-3.17

Param item: CC(Nc1nc(-c2ccccc2)nc2c1CCNCC2)c1nccs1 (stereo not drawn)
19.7

Param item: "NC(=O)Cn1cc(NC(=O)N2CCC(c3ccccc3)CC2)cn1"
16.5

Param item: "CC(=O)N1CC[C@H]2OCC[C@@]2(C(=O)NCc2ccco2)C1"
13.2

Param item: "Cn1cc(NC(=O)N2CCC(NS(C)(=O)=O)CC2)ccc1=O"
91.5

Source of measurements: ChEMBL document CHEMBL3988442
